# Tested on: SH-SY5Y cells
# method_description: AK (adenylate kinase) release ToxiLight cytotoxicity assay
# measurement_context: PKIS2 primary screening

{"molecule": "Cn1cc(-c2ccc3c(c2)CCN3C(=O)Cc2cccc(Cl)c2)c2c(N)ncnc21 [UNC10225039A]", "AK": 96.09}
{"molecule": "Cl.c1ccc(Cn2ccc3cc(Nc4ncnc5ccccc45)ccc32)cc1 [UNC10225488A]", "AK": 113.68}
{"molecule": "NCCNS(=O)(=O)c1ccc(-c2ccnc3[nH]ccc23)cc1 [UNC10225023B]", "AK": 72.23}
{"molecule": "CCn1c(-c2nonc2N)nc2c(-c3ccccc3)ncc(OCCCN)c21.O=C(O)C(F)(F)F.O=C(O)C(F)(F)F [UNC10225047A]", "AK": 103.12}

----------
# Test system: SH-SY5Y cells
# method_description: AK (adenylate kinase) release ToxiLight cytotoxicity assay
# measurement_context: PKIS2 primary screening
Lab note: compare AK with 100, writing yes if less and no if equal or more.

{"compound": "Cl.Cl.NCC(NC(=O)c1cc(-c2cccnc2)c(-c2ccnc3[nH]ccc23)s1)c1ccccc1 (stereo not drawn) [UNC10225315A]", "cat": "yes"}
{"compound": "CC(C)NCC(Cc1ccccc1)NC(=O)c1cc(Br)c(-c2ccnc3[nH]ccc23)s1.Cl.Cl (stereo not drawn) [UNC10225078A]", "cat": "no"}
{"compound": "CN(c1ccc2c(c1)nc(NCc1ccccc1)n2C)c1ccnc(Nc2ccc(CS(C)(=O)=O)cc2)n1 [GW811603]", "cat": "no"}
{"compound": "CCc1nc(-c2cccc(N(C)S(=O)(=O)c3ccccc3)c2)c(-c2ccnc(Nc3ccc(N4CCN(C(C)=O)CC4)nc3)n2)s1 [UNC10225205A]", "cat": "no"}
{"compound": "Cl.Oc1cccc(Nc2ccnc3cc(-c4ccncc4)ccc23)c1 [UNC10225467A]", "cat": "no"}
{"compound": "Cl.c1ccc(-c2ccc3c(Nc4ccc5[nH]ccc5c4)ccnc3c2)nc1 [UNC10225345A]", "cat": "no"}
{"compound": "COc1ccc(Nc2ncc(C#N)c(Nc3ccccc3C(N)=O)n2)cc1N1CCN(C)CC1 [GSK1558669]", "cat": "yes"}
{"compound": "Cc1cc(N2CCC(NS(=O)(=O)c3ccc(F)cc3)CC2)nc(Nc2cccc(C#N)c2)n1 [GSK1653537]", "cat": "no"}
{"compound": "NC(=O)Nc1sc(-c2ccc(F)cc2)cc1C(N)=O [UNC10225118A]", "cat": "yes"}
{"compound": "Cc1ccccc1Cn1ccn2c(=O)cc(N3CCOCC3)nc12 [UNC10225355A]", "cat": "yes"}
{"compound": "Cl.NS(=O)(=O)c1cccc(Nc2cc(-c3ccc(F)cc3)n[nH]2)c1 [UNC10112764A]", "cat": "no"}
{"compound": "Cn1cncc1-c1ccc2ncnc(Nc3ccc(OCc4ccccc4)cc3)c2c1 [UNC10225497A]", "cat": "yes"}
{"compound": "COc1ccc(C[C@@H](CN)NC(=O)c2cc(Br)c(-c3ccnc4[nH]ccc34)s2)cc1.Cl.Cl [UNC10225412A, reference compound]", "cat": "no"}
{"compound": "CN1CCN(CCCNc2nccc(-c3c(-c4ccc(F)cc4)nn4cc(C(F)(F)F)ccc34)n2)CC1 [UNC10225376A]", "cat": "no"}
{"compound": "FC(F)(F)c1ccc(-c2cc(-c3c[nH]nc3-c3ccccn3)ccn2)cc1 [UNC10225241A]", "cat": "no"}
{"compound": "COc1ccc2nc(-c3cccc(C)n3)nc(Nc3ccncc3)c2c1 [GSK204919]", "cat": "no"}
{"compound": "CCn1c(-c2nonc2N)nc2c(C#CC(C)(C)O)nc(OCCN)cc21.Cl.Cl [UNC10225460A]", "cat": "yes"}
{"compound": "CC(C)c1ccc(O)cc1Nc1ccnc2ccc(C(F)(F)F)cc12 [UNC10225322A]", "cat": "yes"}
{"compound": "CSc1nccc(-c2c(-c3ccc(F)cc3)ncn2CCCN2CCOCC2)n1.Cl [UNC10225426A]", "cat": "yes"}
{"compound": "CC(C)(C)OC(=O)NC1CCCN(c2cc(-c3ccc4c(N)n[nH]c4c3)nc(N)n2)C1 (stereo not drawn) [GSK2286096]", "cat": "no"}
{"compound": "CC(C)Oc1ccc2c(-c3ccnc(Nc4ccc(N5CCN(C)CC5)cc4)n3)cnn2n1 [UNC10225414A]", "cat": "no"}
{"compound": "Fc1ccc(-c2nc[nH]c2-c2ccncc2)cc1 [UNC10225418A]", "cat": "yes"}
{"compound": "Cc1cccc(-c2nc(Nc3cccc(C(N)=O)c3)c3ccccc3n2)n1 [GW876019]", "cat": "no"}
{"compound": "Cl.c1ccc(-c2ccc3c(Nc4ccc5[nH]ncc5c4)ccnc3c2)nc1 [UNC10225007A]", "cat": "no"}
{"compound": "COc1ccc(Nc2nccc(-c3ccc(NC(=O)c4cc5cc(F)ccc5[nH]4)cc3)n2)cc1 [GSK1229496]", "cat": "yes"}
{"compound": "CC(C)S(=O)(=O)N1CCN(Cc2ccc3c(c2)nc(NC(=O)c2ccsc2)n3C[C@H](O)c2ccccc2)CC1 [GW635815]", "cat": "yes"}
{"compound": "CC(C)c1cc(-c2ccc3c(N)n[nH]c3c2)nc(N)n1 [GSK2250882]", "cat": "yes"}
{"compound": "Cl.Cl.NC[C@H](Cc1ccc(C(F)(F)F)cc1)NC(=O)c1cc(Br)c(-c2ccnc3[nH]ccc23)s1 [UNC10225108A]", "cat": "no"}
{"compound": "COc1cc2c(Nc3ccc(NC(=O)c4ccccc4)cc3)ncnc2cc1OCCCN1CCOCC1 [UNC10225250A]", "cat": "yes"}
